system: Hepatitis C virus; experiment: Antiviral activity against HCV infected in human Huh-luc/neo-ET cells after 72 hrs by replicon assay; type: functional, organism-based, Hepacivirus hominis
OBSERVED PROPERTY: EC50 (nM)
Please give a number only; it is taken to be in nM.

[ask] Determine its reported EC50: "CCC[C@H](NC(=O)[C@@H]1C[C@@H](OC(=O)N2Cc3ccccc3C2)CN1C(=O)[C@@H](NC(=O)OC(C)(C)C)C(C)(C)C)B1O[C@@H]2C[C@@H]3C[C@@H](C3(C)C)[C@]2(C)O1"
[reply] 93

[ask] Retrieve EC50 measured for "CCC[C@H](NC(=O)[C@@H]1C[C@@H](OC(=O)N2Cc3ccccc3C2)CN1C(=O)[C@@H](NC(=O)OC(C)(C)C)C1CCCCC1)B(O)O" and print it.
[reply] 110
